Test system: Plasmodium falciparum
Test: Screen against P. falciparum Asexual Blood Stage (ABS), at 5uM
Assay type: functional, Dd2
Conditions: tested at 5 uM
Hit rate of the full screen: of about 65,000 compounds, about 2,100 (3.2%) showed an effect of 50% or more. The median lay at about -52%. What follows is part of a selection rich in strong results, with near analogues and random picks from the rest.
Definition: the class of an entry is the range in bin 1 = under -70%, bin 2 = from -70% up to 20%, bin 3 = 20% and over that contains its INHIBITION.

Query :: For the record COCC1CC2(CCN(Cc3ccccn3)CC2)CN1C(C)C (stereo not given) , report the class its INHIBITION corresponds to.
Result :: bin 2

Query :: // bin(item) where item = Cc1cccc(CN2C(=O)CCC23CCNCC3)n1
Result :: bin 1

Query :: Form field 'band' for C1Cc2nc(CCNc3nc(C4CC4)nc4c3CCNCC4)sc2C1
Result :: bin 3

Query :: Please indicate the class for O=C(c1ccncc1)N1CCN2C[C@H](Oc3cccnc3)C[C@H]2C1 based on its INHIBITION.
Result :: bin 1

Query :: Please let me know in which category the item CN1C(=O)C2(CCN(CCO)C2)c2ccccc21 (stereo not given) belongs.
Result :: bin 1

Query :: # bin lookup: classify O=C(Cc1ccccn1)N1CCN2C[C@H](Oc3cccc(F)c3)C[C@H]2C1 by its INHIBITION
Result :: bin 1

Query :: Could you tell me which band Cc1cccnc1CN1CCC2(CC(Nc3ccncn3)C2)C1 (stereo not given) belongs to?
Result :: bin 2

Query :: Record CC(C)CCC(=O)N1C[C@H]2CCN[C@H]2C1 — which class?
Result :: bin 1

Query :: Band for Cc1cc(CN2CC[C@]3(C[C@@H](OCC(=O)N(C)C)CO3)C2)no1 ?
Result :: bin 1

Query :: Exam item: assign CN1CCCC(c2cccc(-c3cccc(F)c3)n2)C1 (stereo not given) to the correct category.
Result :: bin 3

Query :: Given CCCN1C(=O)C2(CCCCC2)NC1c1cn(C)c(=O)n(C)c1=O (stereo not given) , name the class its INHIBITION places it in.
Result :: bin 2

Query :: For this compound, which bin applies? C[C@@H]1CN(Cc2ccsc2)C[C@]12CCN(Cc1cccnc1)C2=O
Result :: bin 2

Query :: Where would Cc1cnc(N2CC[C@H]3[C@H](C[C@@H](CN(C)C)N3C)C2)nc1 land among the classes by reported INHIBITION?
Result :: bin 2

Query :: Which category fits this record: c1ccc(CO[C@H]2CC[C@H]3[C@H]2OCCN3Cc2nccs2)nc1
Result :: bin 2

Query :: Which band does Cc1noc(C)c1CN1CC[C@@H]2O[C@@H](COCC3CC3)CC[C@@H]21 fall in?
Result :: bin 2

Query :: Bin this entry: Cc1n[nH]c2c1C(c1ccsc1)SCC(=O)N2 (stereo not given)
Result :: bin 1

Query :: The entry to classify is CC(C)OC(=O)N1C[C@@H]2CC[C@H]1CN(Cc1cccnc1)C2 ; which class holds it?
Result :: bin 1

Query :: Assign a bin to Fc1cccc(O[C@@H]2C[C@H]3CN(Cc4ccccn4)CCN3C2)c1
Result :: bin 2

Query :: Would you mind sorting c1ccc(C2CN(C3CC3)CC3(CCN(Cc4cscn4)CC3)C2)cc1 (stereo not given) into the appropriate category?
Result :: bin 3

Query :: Band of CC(NCC1CCN(CCO)CC1)c1ccc(OC(F)(F)F)cc1 (stereo not given) ?
Result :: bin 3

Query :: Sort into band: CCCN1CCCC(O)(c2nc(C)c(COc3ccccc3)s2)CC1 (stereo not given)
Result :: bin 3

Query :: Sort O=C(c1ccsc1)N1CCN2C[C@H](OCc3ccccn3)C[C@H]2C1 into one of the categories.
Result :: bin 1

Query :: Exam item: assign Cc1cccnc1CN1CC[C@H](Oc2cccc(F)c2)[C@@](C)(O)C1 to the correct category.
Result :: bin 3

Query :: Bin this entry: Fc1cnc(N2CCN3C[C@H](Oc4cncnc4)C[C@H]3C2)nc1
Result :: bin 1

Query :: Into which bin does this compound go? O=C1CO[C@@H]2CN(CC3CCOCC3)C[C@H]2N1Cc1ccncc1
Result :: bin 1

Query :: Form: Item = CC(C)n1ccnc1C1CCCN(c2ccnc3ccccc23)C1 (stereo not given) ; Class = ?
Result :: bin 3

Query :: Using the reported INHIBITION, which band applies to Cc1cc(NC2CC3(CCN(Cc4cscn4)C3)C2)ncn1 (stereo not given) ?
Result :: bin 2

Query :: Band for the recorded INHIBITION of Cc1nn(C)c2ncc(S(=O)(=O)N3CCCN4CCCC4C3)cc12 (stereo not given) ?
Result :: bin 2

Query :: Kindly identify the class of CN1CCC2(COCc3cnc(-c4ccccc4)nc32)C1 (stereo not given) .
Result :: bin 2

Query :: Category lookup for the compound O=C(c1ccncc1)N1CCN2C[C@H](Oc3cncnc3)C[C@H]2C1
Result :: bin 1

Query :: State the class of the compound shown: CN1CC(c2ccccc2)CC2(CCN(Cc3ncc[nH]3)CC2)C1 (stereo not given)
Result :: bin 3

Query :: Hi, small favor: classify Cc1cc(N2CCCC(c3[nH]ncc3Cc3ccccc3)C2)nc(N)n1 (stereo not given) by its INHIBITION when you get a moment.
Result :: bin 3

Query :: Each compound maps to one class by INHIBITION. Which class for Cc1cnccc1CN1CC[C@H](Oc2cccc(F)c2)[C@@](C)(O)C1 ?
Result :: bin 3

Query :: Assign a category based on measured INHIBITION for Cc1cc(CN2CCO[C@H]3[C@H](OCc4csc(C)n4)CC[C@@H]32)no1 and give only the class name.
Result :: bin 1

Query :: Which INHIBITION category applies to Cc1cccc(-c2ncc(CNC(C)Cc3ncccc3C)cn2)c1 (stereo not given) here?
Result :: bin 2

Query :: Hi, small favor: classify CC(NCC1CCN(CCO)CC1)c1ccc(C(F)(F)F)cc1 (stereo not given) by its INHIBITION when you get a moment.
Result :: bin 3

Query :: Assign a category based on measured INHIBITION for Cc1ccc(N2CCC3(CN(CCO)CCC3(F)F)C2)nn1 (stereo not given) and give only the class name.
Result :: bin 2

Query :: Exam item: assign CCN1CC(c2ccccc2)CC2(CCN(Cc3ncc[nH]3)CC2)C1 (stereo not given) to the correct category.
Result :: bin 3

Query :: Note: place this compound into its band. Item: CC(=O)N1CCCC(c2ccc(N3CCN(C)CC3)cn2)C1 (stereo not given)
Result :: bin 2

Query :: Category of O=C1Nc2ccccc2CC12CCN(CCO)C2 (stereo not given) , please.
Result :: bin 1

Query :: Please indicate the class for CN1CCCC(c2cncc(-c3cccc(C(F)(F)F)c3)n2)C1 (stereo not given) based on its INHIBITION.
Result :: bin 3

Query :: Returns: class label. Input: CC(C)(C)n1ncc2c1NC(=O)CSC2c1ccc2c(c1)OCO2 (stereo not given)
Result :: bin 1

Query :: Exam item: assign OCCN1CCC(CNCc2ccccc2OC(F)(F)F)CC1 to the correct category.
Result :: bin 3

Taken from ChEMBL document CHEMBL4513216.
